compounds and their reported growth
System: NCI-H522 lung
PROTOCOL_DETAILS: NCI-60 one-dose screen, 48 h (100 = growth as untreated, 0 = no growth, -100 = all killed)
COND: 10 µM
Compounds without any hit were thinned out: in the full panel of roughly 83,000, 20% have a hit.
Numeric only. Scale: %

Use these answered entries as a reference point.
| CHEMICAL_STRING | growth (%) |
| --- | --- |
| Cc1ccn2c(C(=O)c3ccc(Br)cc3)cc(-c3cc(-c4ccc(N(C)C)cc4)c(C#N)c(N)n3)c2c1 | 45.3 |
| CCOC(=O)CNC(=O)CN(Cc1ccccc1)C(=O)[C@@]1(C)CCC[C@]2(C)[C@H]3C[C@H]4C(C(C)C)=C[C@]3(CC[C@H]21)[C@@H]1C(=O)OC(=O)[C@@H]14 | 35.6 |
| Nc1n[nH]c2cccc(C#Cc3cccc(NC(=O)Nc4cc(C(F)(F)F)cc(C(F)(F)F)c4)c3)c12 | -58.4 |
| C=CC(=O)Nc1ccc(C(=O)/C=C/c2ccc(N(C)CCF)cc2)c(O)c1 | -76.9 |
| O=C(NO)c1ccc(CN2CCN(c3nc(-c4ccccc4)c4ccccc4n3)CC2)cc1 | -21.2 |
| COc1cc2c3c(n(CCCNCCO)c(=O)c2cc1OC)-c1nc2c(cc1C3=O)OCO2 | 2.99 |
| Brc1ccc(/C=N/Nc2ncnc3sc4c(c23)CCN(Cc2ccccc2)C4)cc1 | 90.4 |

Continue with the next compound.
Reported growth for "O=S(=O)(c1ccc(Cl)cc1)c1nc(-c2ccccc2)oc1S(=O)(=O)c1ccc(Cl)cc1" was 88.1
